Hi there, I'd appreciate the recorded Tmax for every entry that follows.
- Assay procedure: Tmax in Sprague-Dawley rat at 25 mg/kg, po
- Format: ADME, organism-based
- Set-up: dose 25 mg/kg, route oral
- Assay context: in vivo
Give bare numbers, in min.

Look over these answered cases.
Mol: C=C1C[C@@H](C(=O)Nc2ncc(C)s2)N(C(=O)[C@H](CCCC)CN(O)C=O)C1
Tmax [min]: 41.3

Mol: O=CN(O)C[C@@H](CC1CCCC1)C(=O)N1CC=C[C@H]1C(=O)Nc1ccc(F)c[n+]1[O-]
Tmax [min]: 22.5

Mol: CCCC[C@H](CN(O)C=O)C(=O)N1CC=C[C@H]1C(=O)Nc1ncc(C)s1
Tmax [min]: 37.5

Mol: Cc1cnc(NC(=O)[C@@H]2C=CCN2C(=O)[C@H](CC2CCCC2)CN(O)C=O)s1
Tmax [min]: 37.5

Please give the measured Tmax for this compound: `CCCC[C@H](CN(O)C=O)C(=O)N1CC=C[C@H]1C(=O)Nc1ccc(F)c[n+]1[O-]`
41.3

###

- Assay procedure: Half life in Sprague-Dawley rat at 5 mg/kg, iv
- Type: ADME, organism-based
- Design: dose 5 mg/kg, route intravenous
- Assay context: in vivo
Experimental endpoint: half-life (h)
Numbers only, in h.

Look over these answered cases.
Mol: CCCC[C@H](CN(O)C=O)C(=O)N1CC=C[C@H]1C(=O)Nc1ccc(F)c[n+]1[O-]
half-life [h]: 1.17
--
Mol: C=C1C[C@@H](C(=O)Nc2ncc(C)s2)N(C(=O)[C@H](CCCC)CN(O)C=O)C1
half-life [h]: 3.21
--
Mol: CCCC[C@H](CN(O)C=O)C(=O)N1CC=C[C@H]1C(=O)Nc1ncc(C)s1
half-life [h]: 4.08
--
Mol: O=CN(O)C[C@@H](CC1CCCC1)C(=O)N1CC=C[C@H]1C(=O)Nc1ccc(F)c[n+]1[O-]
half-life [h]: 0.807

Lab note: next molecule to report on.
Please give the measured half-life for this molecule: `Cc1cnc(NC(=O)[C@@H]2C=CCN2C(=O)[C@H](CC2CCCC2)CN(O)C=O)s1`
2.68

###

- System: Streptococcus pneumoniae
- Assay procedure: Antimicrobial activity against Streptococcus pneumoniae N1387 after 24 hrs by broth microdilution method
- Type: functional
- Assay context: N1387, 24 h
Experimental endpoint: log10 MIC (log10 of the value in µg/mL)
In our notation, the value equals log10 of MIC in µg/mL.

Mol: O=CN(O)C[C@@H](CC1CCCC1)C(=O)N1CC=C[C@H]1C(=O)Nc1ccc(F)cc1
Experimental endpoint: log10 MIC
Recorded measurement: -0.30
--
Mol: CCCC[C@H](CN(O)C=O)C(=O)N1CC=C[C@H]1C(=O)Nc1ccc(F)c[n+]1[O-]
Experimental endpoint: log10 MIC
Recorded measurement: -0.30
--
Mol: Cc1cnc(NC(=O)[C@@H]2C=CCN2C(=O)[C@H](CC2CCCC2)CN(O)C=O)s1
Experimental endpoint: log10 MIC
Recorded measurement: -0.60
--
Mol: C=C1C[C@@H](C(=O)Nc2ccc(F)cn2)N(C(=O)[C@H](CCCC)CN(O)C=O)C1
Experimental endpoint: log10 MIC
Recorded measurement: 0.60
--
Mol: CC1(C)S[C@@H]2[C@H](NC(=O)[C@H](N)c3ccc(O)cc3)C(=O)N2[C@H]1C(=O)O
Experimental endpoint: log10 MIC
Recorded measurement: 0.30

Give log10 MIC for each listed item.
1. O=CN(O)C[C@@H](CC1CCCC1)C(=O)N1CC=C[C@H]1C(=O)Nc1ccc(F)c[n+]1[O-]
2. C=C1C[C@@H](C(=O)Nc2ncc(C)s2)N(C(=O)[C@H](CCCC)CN(O)C=O)C1
3. O=CN(O)C[C@@H](CC1CCCC1)C(=O)N1CC=C[C@H]1C(=O)Nc1ccccc1

-0.90
0.00
-0.30
